Reference source for all entries: ChEMBL document CHEMBL5291721

endpoint: AC50

Given the entry C[C@]12C=CC(=O)C=C1CC[C@@H]1[C@@H]2CC[C@]2(C)OC(=O)CC[C@@H]12 , what AC50 was observed with Alpha-1A adrenergic receptor (Homo sapiens, UniProt P35348)?
> 10 µM

Given the entry C[C@]12CCC(=O)C[C@@H]1CC[C@@H]1[C@@H]2CC[C@]2(C)[C@@H](O)CC[C@@H]12 , what AC50 was observed with Alpha-1A adrenergic receptor (Homo sapiens, UniProt P35348)?
> 30 µM

Given the entry COc1ccc2cc(CCC(C)=O)ccc2c1 , what AC50 was observed with Alpha-1A adrenergic receptor (Homo sapiens, UniProt P35348)?
> 30 µM

Given the entry Cc1cc(C)nc(NS(=O)(=O)c2ccc(N)cc2)n1 , what AC50 was observed with Alpha-1A adrenergic receptor (Homo sapiens, UniProt P35348)?
> 30 µM

Given the entry NS(=O)(=O)c1cc2c(cc1Cl)N=C(CSCc1ccccc1)NS2(=O)=O [BENZTHIAZIDE] , what AC50 was observed with Alpha-1A adrenergic receptor (Homo sapiens, UniProt P35348)?
> 30 µM

Given the entry CC(CN(C)C)C(C)(O)Cc1ccc(Cl)cc1 (stereo not drawn) , what AC50 was observed with Alpha-1A adrenergic receptor (Homo sapiens, UniProt P35348)?
> 10 µM

Given the entry COc1cc(C(=O)NS(=O)(=O)c2ccccc2C)ccc1Cc1cn(C)c2ccc(NC(=O)OC3CCCC3)cc12 , what AC50 was observed with Alpha-1A adrenergic receptor (Homo sapiens, UniProt P35348)?
> 10 µM

Given the entry CNCCc1ccc(OC(=O)C(C)C)c(OC(=O)C(C)C)c1 , what AC50 was observed with Alpha-1A adrenergic receptor (Homo sapiens, UniProt P35348)?
> 30 µM

Given the entry C=C1c2cccc(O)c2C(=O)C2=C(O)[C@]3(O)C(=O)C(C(N)=O)=C(O)[C@@H](N(C)C)[C@@H]3[C@@H](O)[C@H]12 , what AC50 was observed with Alpha-1A adrenergic receptor (Homo sapiens, UniProt P35348)?
> 10 µM

Given the entry CN[C@@H](C)[C@@H](O)c1ccccc1 , what AC50 was observed with Alpha-1A adrenergic receptor (Homo sapiens, UniProt P35348)?
> 10 µM

Given the entry NC(=O)NC(=O)Cc1ccccc1 [PHENACEMIDE] , what AC50 was observed with Alpha-1A adrenergic receptor (Homo sapiens, UniProt P35348)?
> 10 µM

Given the entry Cc1cc(=O)n(-c2ccccc2)n1C [ANTIPYRINE] , what AC50 was observed with Alpha-1A adrenergic receptor (Homo sapiens, UniProt P35348)?
> 10 µM

Given the entry CCOC(=O)C(C)(C)Oc1ccc(Cl)cc1 [CLOFIBRATE] , what AC50 was observed with Alpha-1A adrenergic receptor (Homo sapiens, UniProt P35348)?
> 10 µM

Given the entry CC[C@H](C)C(=O)O[C@H]1C[C@@H](C)C=C2C=C[C@H](C)[C@H](CC[C@@H]3C[C@@H](O)CC(=O)O3)[C@H]21 , what AC50 was observed with Alpha-1A adrenergic receptor (Homo sapiens, UniProt P35348)?
> 10 µM

Given the entry CC(=O)c1ccc(S(=O)(=O)NC(=O)NC2CCCCC2)cc1 [ACETOHEXAMIDE] , what AC50 was observed with Alpha-1A adrenergic receptor (Homo sapiens, UniProt P35348)?
> 10 µM

Given the entry CCOC(=O)c1ccc(C#Cc2ccc3c(c2)C(C)(C)CCS3)nc1 , what AC50 was observed with Alpha-1A adrenergic receptor (Homo sapiens, UniProt P35348)?
> 10 µM

Given the entry O=C1c2ccccc2C(=O)C1c1ccccc1 , what AC50 was observed with Alpha-1A adrenergic receptor (Homo sapiens, UniProt P35348)?
> 10 µM

Given the entry CN(C)Cc1nnc2n1-c1ccc(Cl)cc1C(c1ccccc1)=NC2 , what AC50 was observed with Alpha-1A adrenergic receptor (Homo sapiens, UniProt P35348)?
> 10 µM
